Molecular target: Glucocorticoid receptor (Homo sapiens)
Assay: ATG_GR_TRANS: Attagene TRANS-FACTORIAL HepG2 Assay for human Glucocorticoid Receptor (GR) (AID 2282978);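 also: activators score as hits since higher reporter transcript over DMSO is fitted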
Conditions: HepG2 Attagene TRANS GR reporter, mRNA transcription
Results filed as inconclusive are left out. Calls of active or inactive are those of the source. The calls were made as follows: active = hit-call score of the fitted dose curve at least 0.9, where 1 is the maximum; inconclusive = response in the unintended direction; inactive = score below 0.9.
ENDPOINT LABEL: outcome

Use these answered entries as a reference point.
{"MOLECULE": "C=C(C)C(=O)OCCC(C)OC(=O)C(=C)C (stereo not given)", "outcome": "inactive"}
{"MOLECULE": "CC(=O)CCC(=O)O", "outcome": "inactive"}
{"MOLECULE": "CC(C)(O)C(=O)c1ccc(OCCO)cc1", "outcome": "inactive"}
{"MOLECULE": "CCCOC(=O)CC", "outcome": "inactive"}
{"MOLECULE": "CCCCC1CCCCC(=O)O1 (stereo not given)", "outcome": "inactive"}

Bench note: what outcome did CN1CCc2cccc3c2[C@H]1Cc1ccc(O)c(O)c1-3 show? inactive

What outcome value was documented for this molecule, O=C(C=Cc1ccccc1)OCCCc1ccccc1 ? inactive

Value lookup for outcome; key = CC/C=C\CCOC(=O)C(C)C inactive

Which outcome value is on record for CC(CCO)CC(C)(C)C (stereo not given) ? inactive

Look at this molecule and give its reported outcome. O=C1CCCCCCCCCCCC(=O)OCCO1 inactive

outcome lookup needed for O=C(c1ccc(OCCN2CCCCC2)cc1)c1c(-c2ccc(O)cc2)sc2cc(O)ccc12 , thanks. inactive

What measured outcome goes with CC(C)(C)c1ccc(S)cc1 ? inactive

Item NC(N)=NC(N)=NCCc1ccccc1 has what recorded outcome? inactive

Name the reported outcome value associated with the molecule CC(C)COC(=O)c1ccccc1O inactive

Returns the measured outcome for the input molecule. Input: CC1=CC(O)CC(C)(C)C1 (stereo not given) inactive

All values here come from PubChem BioAssay (EPA / NIEHS).
